Origin of values: paper PMC9743128

# experimental protocol: Pharmacokinetic (PK) study after IP injection
# experimental context: C57BL/6, mouse, in vivo, I.P., 5 mg/kg
readout name: AUC(0-t) (ng·h/mL)

| structure | reading unit | observed result |
| --- | --- | --- |
| COc1ccc2c(c1O)OC(C)(C)C=C2c1cccc2c1oc1ccccc12 | ng·h/mL | 1770 |

###

# Tested on: LPS-mediated NO release in BV-2 microglial cells
# experimental protocol: Griess assay: cellular NO release after LPS treatment
# Type: cell-based, murine
# experimental context: Mus musculus; BV-2 cells, 100 ng/mL LPS, 24 h
Here the recorded IC50 is given for each entry.
readout name: IC50 (µM)

| compound | assayed system | readout name | observed result |
| --- | --- | --- | --- |
| COC(=O)Nc1nc2ccc(C(=O)c3cccs3)cc2[nH]1 [Nocodazole, reference compound] | LPS-mediated NO release in BV-2 microglial cells | IC50 | 13.4 |
| COc1ccc2c(c1O)OC(C)(C)C=C2c1cccc2c1oc1ccccc12 [Compound 8] | LPS-mediated NO release in BV-2 microglial cells | IC50 | 1.13 |
| COc1ccc2c(c1O)OC(C)(C)C=C2c1ccc(Cl)cc1C [Compound 1] | LPS-mediated NO release in BV-2 microglial cells | IC50 | 5.22 |

###

# experimental protocol: Pharmacokinetic (PK) study after IP injection
# experimental context: C57BL/6, mouse, in vivo, I.P., 5 mg/kg

| structure | AUC(0-inf), ng·h/mL |
| --- | --- |
| COc1ccc2c(c1O)OC(C)(C)C=C2c1cccc2c1oc1ccccc12 | 1790 |

###

# experimental protocol: Pharmacokinetic (PK) study after IP injection
# experimental context: C57BL/6, mouse, in vivo, I.P., 5 mg/kg
readout name: Tmax (min)

| compound | reading unit | observed result |
| --- | --- | --- |
| COc1ccc2c(c1O)OC(C)(C)C=C2c1cccc2c1oc1ccccc12 [Compound 8] | min | 10.2 |

###

# experimental protocol: Pharmacokinetic (PK) study after IP injection
# experimental context: C57BL/6, mouse, in vivo, I.P., 5 mg/kg
readout name: half-life (h)

| compound | observed result |
| --- | --- |
| COc1ccc2c(c1O)OC(C)(C)C=C2c1cccc2c1oc1ccccc12 [Compound 8] | 3.57 |
